Could you please report measured Spleen for the items listed next?
- Tested on: PC-3 PIP/flu tumor-bearing mice
- Protocol description: Biodistribution studies in PC-3 PIP/flu tumor-bearing mice
- Experimental parameters: 24 h p.i.
I only need the number, in % IA/g, no unit after it.

Lab note: measured Spleen of O=C(O)CCC(NC(=O)NC(CCCCNC(=O)C(Cc1ccc2ccccc2c1)NC(=O)C1CCC(CNC(=O)C(CCCCNC(=O)CN2CCN(CC(=O)O)CCN(CC(=O)O)CCN(CC(=O)O)CC2)NC(=O)CC(NC(=O)CC(NC(=O)CC(NC(=O)CCCc2ccc(I)cc2)C(=O)O)C(=O)O)C(=O)O)CC1)C(=O)O)C(=O)O (stereo not drawn) [^177Lu-PSMA-ALB-07, metal not drawn] was 1.14

Lab note: measured Spleen of Cc1ccc(CCCC(=O)NC(CC(=O)NC(CC(=O)NC(CC(=O)NC(CCCCNC(=O)CN2CCN(CC(=O)O)CCN(CC(=O)O)CCN(CC(=O)O)CC2)C(=O)NCC2CCC(C(=O)NC(Cc3ccc4ccccc4c3)C(=O)NCCCCC(NC(=O)NC(CCC(=O)O)C(=O)O)C(=O)O)CC2)C(=O)O)C(=O)O)C(=O)O)cc1 (stereo not drawn) [^177Lu-PSMA-ALB-08, metal not drawn] was 0.10

Lab note: measured Spleen of O=C(O)CCC(NC(=O)NC(CCCCNC(=O)C(Cc1ccc2ccccc2c1)NC(=O)C1CCC(CNC(=O)C(CCCCNC(=O)CN2CCN(CC(=O)O)CCN(CC(=O)O)CCN(CC(=O)O)CC2)NC(=O)CC(NC(=O)CC(NC(=O)CCCc2ccc(I)cc2)C(=O)O)C(=O)O)CC1)C(=O)O)C(=O)O (stereo not drawn) [^177Lu-PSMA-ALB-05, metal not drawn] was 1.13

Origin of measurements: patent US11629201B2
